Documented kon across a set of binders
# Target desc: T1, human CD33 extracellular domain (human, UniProt P20138 18-259)
# T1 construct: soluble monomeric ECD; also called human CD33 ECD; hCD33
# Assay protocol: BLI Octet, IgG loaded;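 further: IgGs captured on AHC biosensors, exposed to 100 nM antigen for 3 min association then 3 min dissociation in buffer, kinetics fitted with a 1:1 binding model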
Respond with the bare value in M⁻¹ s⁻¹.

See these solved cases before continuing.
Binder	U	Readout number
ADI-11825 IgG (antibody, V domains shown, IgG; also called Ab25) VH: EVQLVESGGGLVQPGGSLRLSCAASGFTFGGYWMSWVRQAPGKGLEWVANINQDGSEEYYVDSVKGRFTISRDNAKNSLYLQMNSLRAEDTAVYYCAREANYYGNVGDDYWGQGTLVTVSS VL: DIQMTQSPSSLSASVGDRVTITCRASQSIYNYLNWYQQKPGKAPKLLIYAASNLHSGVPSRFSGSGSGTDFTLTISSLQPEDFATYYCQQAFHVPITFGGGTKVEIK	M⁻¹ s⁻¹	696000
ADI-11828 IgG (antibody, V domains shown, IgG; also called Ab27) VH: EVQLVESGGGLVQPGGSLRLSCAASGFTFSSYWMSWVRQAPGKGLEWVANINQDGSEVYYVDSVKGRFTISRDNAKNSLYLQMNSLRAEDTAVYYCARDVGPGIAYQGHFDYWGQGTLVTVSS VL: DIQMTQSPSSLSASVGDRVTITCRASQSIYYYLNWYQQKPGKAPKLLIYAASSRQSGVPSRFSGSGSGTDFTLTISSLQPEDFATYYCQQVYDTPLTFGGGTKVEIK	M⁻¹ s⁻¹	658000

Which kon is listed for ADI-11826 IgG (antibody, V domains shown, IgG; also called Ab26) VH: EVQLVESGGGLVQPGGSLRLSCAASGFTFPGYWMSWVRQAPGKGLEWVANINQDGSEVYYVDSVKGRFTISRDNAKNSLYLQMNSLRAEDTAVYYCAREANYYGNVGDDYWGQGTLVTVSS VL: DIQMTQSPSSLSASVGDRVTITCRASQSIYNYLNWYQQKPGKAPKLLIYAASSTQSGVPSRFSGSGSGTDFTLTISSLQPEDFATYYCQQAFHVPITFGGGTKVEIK ? 619000
